condition set: in methanol, 293.15 K
measurement kind: solubility (mole fraction)
Lab note: jot the number down without any unit.

What the record says about NC(=O)c1cccnc1Cl : solubility (mole fraction) is 0.0122

###

condition set: in DMAc, 293.15 K
measurement kind: solubility (mole fraction)
Lab note: jot the number down without any unit.

What the record says about NC(=O)c1cccnc1Cl : solubility (mole fraction) is 0.163

###

condition set: in 1,4-dioxane, 323.15 K
measurement kind: solubility (mole fraction)
Lab note: jot the number down without any unit.

What the record says about NC(=O)c1cccnc1Cl : solubility (mole fraction) is 0.0244

###

condition set: in ethylene glycol, 323.15 K
measurement kind: solubility (mole fraction)
Lab note: jot the number down without any unit.

What the record says about NC(=O)c1cccnc1Cl : solubility (mole fraction) is 0.0403

###

condition set: in 2-methoxyethanol, 308.15 K
measurement kind: solubility (mole fraction)
Lab note: jot the number down without any unit.

What the record says about NC(=O)c1cccnc1Cl : solubility (mole fraction) is 0.0542

###

condition set: in DMF, 318.15 K
measurement kind: solubility (mole fraction)
Lab note: jot the number down without any unit.

What the record says about NC(=O)c1cccnc1Cl : solubility (mole fraction) is 0.188

###

condition set: in ethanol, 298.15 K
measurement kind: solubility (mole fraction)

What the record says about NC(=O)c1cccnc1Cl : solubility (mole fraction) is 0.00698

###

condition set: in DMF, 313.15 K
measurement kind: solubility (mole fraction)
Lab note: jot the number down without any unit.

What the record says about NC(=O)c1cccnc1Cl : solubility (mole fraction) is 0.175

###

condition set: in 2-ethoxyethanol, 298.15 K
measurement kind: solubility (mole fraction)
Lab note: jot the number down without any unit.

What the record says about NC(=O)c1cccnc1Cl : solubility (mole fraction) is 0.0267

###

condition set: in DMF, 308.15 K
measurement kind: solubility (mole fraction)
Lab note: jot the number down without any unit.

What the record says about NC(=O)c1cccnc1Cl : solubility (mole fraction) is 0.161

###

condition set: in 2-methoxyethanol, 293.15 K
measurement kind: solubility (mole fraction)
Lab note: jot the number down without any unit.

What the record says about NC(=O)c1cccnc1Cl : solubility (mole fraction) is 0.0352

###

condition set: in water, 303.15 K
measurement kind: solubility (mole fraction)
Lab note: jot the number down without any unit.

What the record says about NC(=O)c1cccnc1Cl : solubility (mole fraction) is 0.00237

###

condition set: in methyl acetate, 303.15 K
measurement kind: solubility (mole fraction)
Lab note: jot the number down without any unit.

What the record says about NC(=O)c1cccnc1Cl : solubility (mole fraction) is 0.00587

###

condition set: in water, 308.15 K
measurement kind: solubility (mole fraction)
Lab note: jot the number down without any unit.

What the record says about NC(=O)c1cccnc1Cl : solubility (mole fraction) is 0.00291
